Below, each entry is listed with its recorded ASMS ratio (%) n = 2.
test.target: Bcl-2 protein (Recombinant Human Bcl-2 Protein) (Homo sapiens, UniProt P10415)
Construct: purchased Novus Biologicals NBP2-34889
Sequence (P10415 whole entry): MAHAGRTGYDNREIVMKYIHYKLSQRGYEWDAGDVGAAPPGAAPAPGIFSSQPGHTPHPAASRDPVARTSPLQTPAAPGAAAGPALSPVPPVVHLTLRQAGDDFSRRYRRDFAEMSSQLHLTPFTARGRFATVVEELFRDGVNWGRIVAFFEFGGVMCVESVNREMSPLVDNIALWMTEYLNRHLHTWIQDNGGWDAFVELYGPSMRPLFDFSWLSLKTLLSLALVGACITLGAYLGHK
measurement.protocol: AS-MS evaluation of binding of the Example 4 mixture library (1200 compounds/well) to Bcl-2, ASMS ratio (%)
condition.label: AS-MS, Example 4 mixture library, Bcl-2, replicate n = 2
The reply should contain only the number, in %.

Record excerpt, results attached:
>>> recorded_result("CCOc1cncc(-c2cc(CN3CCN(c4ccc(C(=O)NS(=O)(=O)CCC(F)(F)F)cc4)CC3)cc(OC(F)(F)F)c2)c1 [Compound B2N064-01]")
0.0
>>> recorded_result("CCOc1cncc(-c2ccc(C(=O)N3CCN(c4ccc(C(=O)NS(=O)(=O)CCC(F)(F)F)cc4)CC3)cc2F)c1 [Compound B2N028-01]")
"−0.9"

Attention now turns to another entry.
In: Dear colleague, I am looking for the recorded ASMS ratio (%) n = 2 of the following compound: CCOc1cncc(-c2ccc(C(C)N3CCN(c4ccc(C(=O)NS(=O)(=O)c5ccc(NCCSc6ccccc6)c(C(F)(F)F)c5)cc4)CC3)cc2)c1 (stereo not drawn) [Compound B2R098-01]
Out: 7.5

---

test.target: Bcl-2 protein (Recombinant Human Bcl-2 Protein) (Homo sapiens, UniProt P10415)
Construct: purchased Novus Biologicals NBP2-34889
measurement.protocol: AS-MS evaluation of binding of the mixture libraries of Examples 8 and 9 to Bcl-2, ASMS ratio (%), Example 11
condition.label: ASMS ratio, replicate N3 (additional day); mixtures obtained from Example 9, 10 uM Bcl-2 protein
assay.readout: AS-MS(%) N3
The reply should contain only the number, in %.

In: Please state recorded AS-MS(%) N3 (tested on Bcl-2 protein (Recombinant Human Bcl-2 Protein) (Homo sapiens, UniProt P10415)) of CCOc1cc(C(C)C(=O)Nc2ccc(F)cc2)cc(N2CCN(c3ccc(C(=O)NS(=O)(=O)c4ccc(N[C@H](CCN5CCOCC5)CSc5ccccc5)c([N+](=O)[O-])c4)cc3)CC2)c1 (stereo partly drawn) [2-2-d1E04-2-0454]
Out: 58.2

In: Please state recorded AS-MS(%) N3 (tested on Bcl-2 protein (Recombinant Human Bcl-2 Protein) (Homo sapiens, UniProt P10415)) of CC(C(=O)Nc1ccc(F)cc1)c1cc(O)cc(N2CCN(c3ccc(C(=O)NS(=O)(=O)c4ccc(N[C@H](CCN5CCOCC5)CSc5ccccc5)c([N+](=O)[O-])c4)cc3)CC2)c1 (stereo partly drawn) [2-2-d1E04-1-0454]
Out: 78.5

In: Please state recorded AS-MS(%) N3 (tested on Bcl-2 protein (Recombinant Human Bcl-2 Protein) (Homo sapiens, UniProt P10415)) of CC(C(=O)Nc1ccc(F)cc1)c1cc(O)cc(N2CCN(c3ccc(C(=O)NS(=O)(=O)c4ccc(NCCSc5ccccc5)c([N+](=O)[O-])c4)cc3)CC2)c1 (stereo not drawn) [2-2-d1E03-1-0454]
Out: 39.2

---

Below, each entry is listed with its recorded ASMS ratio (%) n = 1.
test.target: Bcl-2 protein (Recombinant Human Bcl-2 Protein) (Homo sapiens, UniProt P10415)
Construct: purchased Novus Biologicals NBP2-34889
measurement.protocol: AS-MS evaluation of binding of the Example 4 mixture library (1200 compounds/well) to Bcl-2, ASMS ratio (%)
condition.label: AS-MS, Example 4 mixture library, Bcl-2, replicate n = 1

>>> recorded_result("CCOc1cncc(-c2ccc(CN3CCN(c4ccc(C(=O)NS(=O)(=O)CCC(F)(F)F)nn4)CC3)c(CC)c2)c1")
"0.0%"
>>> recorded_result("CCOc1cncc(-c2cnn(-c3cc(C(=O)N4CCN(c5ccc(C(=O)NS(=O)(=O)c6ccc(NCCSc7ccccc7)c(C(F)(F)F)c6)nn5)CC4)cc(C(F)(F)F)c3)c2)c1")
"14.5%"
>>> recorded_result("CCOc1cncc(-c2ccc(C(=O)N3CCN(c4ccc(C(=O)NS(=O)(=O)c5ccc(NCCSc6ccccc6)c(C(F)(F)F)c5)cc4)CC3)c3ccccc23)c1")
"3.2%"

Attention now turns to another entry.
In: Dear colleague, I am looking for the recorded ASMS ratio (%) n = 1 of the following molecule: "CCOc1cccc(-c2cc(C(=O)N3CCN(c4ccc(C(=O)NS(=O)(=O)c5ccc(NCCSc6ccccc6)c(C(F)(F)F)c5)nn4)CC3)cc(C(C)(C)C)c2)c1"
Out: 9.7%
